Attribution: patent US20170226121A1

TEST DESCRIPTION: in vitro
ASSAY CONTEXT: human
QUANTITY: CC50

# get_value(readout='CC50', item= Nc1ccn([C@@H]2CS[C@H](CO)O2)c(=O)n1 [Compound 3TC, lamivudine, reference compound] )
> 100 µM

* * *

For each entry below, report its (YI) ratio of CC50/EC50, therapeutic index value.
System: HepG2
TEST DESCRIPTION: in vitro
ASSAY CONTEXT: value in parentheses in CC50 cell
Numbers only.

Below, 2 compounds whose answers are already recorded.
COC(=O)C1=C(CN2CCN(C(=O)CCCC(=O)NCCCN=[N+]=[N-])CC2)NC(c2ccccn2)=NC1c1ccc(F)cc1Cl (stereo not shown) [Compound B-070]
3.7
C#CCCCCN1CCN(CC2=C(C(=O)OC)C(c3ccc(F)cc3Cl)N=C(c3ccccn3)N2)CC1 (stereo not shown) [Compound B-073]
0.5

Query compound follows.
# get_value(readout='(YI) ratio of CC50/EC50, therapeutic index', item= COC(=O)C1=C(CN2CCNC(=O)CC2)NC(c2ccccn2)=NC1c1ccc(F)cc1Cl (stereo not shown) [Compound B-120] )
99
